# GI50 annotations
system: HT29 colon; experiment: NCI tumour cell line growth inhibition, 48 h

// returns GI50 for "COc1ccc(/C(COc2c(-c3ccccc3)oc3ccccc3c2=O)=N\O)cc1" with HT29 colon; value = 20.7 µM

###

tested on: UACC-257 melanoma; test: NCI tumour cell line growth inhibition, 48 h; in the data active = GI50 below about 0.43 µM; inactive = the rest
Can you answer with just one of these options? 1 = active, -1 = inactive

Any idea what this test logged for "COc1cc(C2=C(c3ccccc3)COC2=O)cc(OC)c1OC" ?
-1

New cases:
Any idea what this test logged for "O=c1/c(=C/c2ccco2)sc2nc3ccccc3n12" ?
-1

Any idea what this test logged for "FC(F)(F)c1cccc(Nc2nccc(-c3cnn4nc(-c5ccccc5)ccc34)n2)c1" ?
-1

Any idea what this test logged for "Cn1c2ccccc2c2c(-c3ccccc3)[n+]3ccncc3nc21" ?
-1

Any idea what this test logged for "O=C1Nc2c(C(F)(F)F)cccc2[C@]1(c1ccc(O)cc1)c1ccc(OC(F)(F)F)cc1" ?
-1

Any idea what this test logged for "OCc1c[nH]c2ccccc12" ?
-1

Any idea what this test logged for "CC[CH2][Sn]([CH2]CC)([O]C(=O)c1cccnc1SC)[O][Sn]([CH2]CC)([CH2]CC)[O]C(=O)c1cccnc1SC" ?
-1

Any idea what this test logged for "C=CCCCCCCCCC(=O)[O][Sn]([CH2]CCC)([CH2]CCC)[CH2]CCC" ?
1

Any idea what this test logged for "CCC[CH2][Sn]1([CH2]CCC)[O]Cc2nc(C)ccc2[O]1" ?
-1

Any idea what this test logged for "N#Cc1ccc(NC(=O)Nc2ccc(Oc3ccc(NC(=O)Nc4ccc(C#N)cc4)cc3)cc2)cc1" ?
-1

Any idea what this test logged for "CS(=O)(=O)c1ccc([C@H]2O[C@@H](CO)C[C@]2(O)c2ccc(S(C)(=O)=O)cc2)cc1" ?
-1

Any idea what this test logged for "CC[C@]1(O)C[C@@H]2CN(CCc3c([nH]c4ccccc34)[C@@](C(=O)OC)(c3cc4c(cc3OC)N(C)[C@H]3[C@@](O)(C(=O)OC)[C@H](OC(C)=O)[C@]5(CC)C=CCN6CC[C@]43[C@@H]65)C2)C1" ?
-1

Any idea what this test logged for "NC(=O)c1ccc(I)c(N)c1" ?
-1
